# METHOD_NOTES: Biodistribution in U87MG tumor-bearing mice
# Type: in vivo
# TEST_PARAMETERS: female, CD-1 nude (athymic nude), mouse, blood, iv, 5 MBq per mouse, total radioactivity, i.v. ~5 MBq (~1 nmol), 2 h p.i., mean ± SD, n=3, read-out: Biodistribution, Blood
PROPERTY_NAME: tissue uptake at 2 h (%ID/g)
Give just the number in %ID/g; leave the unit off.

# get_value(readout='tissue uptake at 2 h', item= N=C(N)NCCC[C@@H]1NC(=O)[C@H](CCCCNC(=O)CN2CCN(CC(=O)O)CCN(CC(=O)O)CCN(CC(=O)O)CC2)NC(=O)[C@@H](Cc2ccccc2)NC(=O)[C@H](CC(=O)O)NC(=O)CNC1=O [^44Sc-DOTA-RGD, metal not drawn] )
0.08

###

# METHOD_NOTES: Biodistribution in AR42J tumor-bearing mice
# TEST_PARAMETERS: female, CD-1 nude (athymic nude), mouse, kidneys, iv, total radioactivity, Biodistribution, i.v. ~5 MBq (~1 nmol), 5 h p.i., mean ± SD, n=3
PROPERTY_NAME: tissue uptake at 5 h (%ID/g)
Give just the number in %ID/g; leave the unit off.

# get_value(readout='tissue uptake at 5 h', item= C[C@@H](O)[C@@H]1NC(=O)[C@H](CCCCN)NC(=O)[C@@H](Cc2c[nH]c3ccccc23)NC(=O)[C@H](Cc2cccc3ccccc23)NC(=O)[C@@H](NC(=O)[C@@H](Cc2ccccc2)NC(=O)CCC(C(=O)O)N2CCN(CC(=O)O)CCN(CC(=O)O)CC2)CSSC[C@@H](C(=O)N[C@H](CO)[C@@H](C)O)NC1=O (stereo partly shown) [^44Sc-NODAGA-NOC, metal not drawn] )
13

###

I'd appreciate it if you could supply tissue to tissue ratio at 0.5 h values for the items below.
# METHOD_NOTES: Biodistribution in U87MG tumor-bearing mice
# Type: in vivo
# TEST_PARAMETERS: female, CD-1 nude (athymic nude), mouse, U87MG tumor / kidneys, iv, total radioactivity, i.v. ~5 MBq (~1 nmol), 30 min p.i., mean ± SD, n=3, read-out: Tumor-to-kidney ratio
Give your answer as a number; write no unit.

# get_value(readout='tissue to tissue ratio at 0.5 h', item= N=C(N)NCCC[C@@H]1NC(=O)[C@H](CCCCNC(=O)CN2CCN(CC(=O)O)CCN(CC(=O)O)CCN(CC(=O)O)CC2)NC(=O)[C@@H](Cc2ccccc2)NC(=O)[C@H](CC(=O)O)NC(=O)CNC1=O [^44Sc-DOTA-RGD, metal not drawn] )
1.16

# get_value(readout='tissue to tissue ratio at 0.5 h', item= N=C(N)NCCC[C@@H]1NC(=O)[C@H](CCCCNC(=O)CCC(C(=O)O)N2CCN(CC(=O)O)CCN(CC(=O)O)CC2)NC(=O)[C@@H](Cc2ccc(O)cc2)NC(=O)[C@H](CC(=O)O)NC(=O)CNC1=O (some centres unmarked) [^44Sc-NODAGA-RGD, metal not drawn] )
1.18

###

# METHOD_NOTES: Biodistribution in AR42J tumor-bearing mice
# TEST_PARAMETERS: female, CD-1 nude (athymic nude), mouse, kidneys, iv, total radioactivity, Biodistribution, i.v. ~5 MBq (~1 nmol), 30 min p.i., mean ± SD, n=3
PROPERTY_NAME: tissue uptake at 0.5 h (%ID/g)
Give just the number in %ID/g; leave the unit off.

# get_value(readout='tissue uptake at 0.5 h', item= C[C@@H](O)[C@@H]1NC(=O)[C@H](CCCCN)NC(=O)[C@@H](Cc2c[nH]c3ccccc23)NC(=O)[C@H](Cc2cccc3ccccc23)NC(=O)[C@@H](NC(=O)[C@@H](Cc2ccccc2)NC(=O)CCC(C(=O)O)N2CCN(CC(=O)O)CCN(CC(=O)O)CC2)CSSC[C@@H](C(=O)N[C@H](CO)[C@@H](C)O)NC1=O (stereo partly shown) [^44Sc-NODAGA-NOC, metal not drawn] )
12.4
